TEST TARGET: Muscarinic acetylcholine receptor M1 (Homo sapiens)
METHOD: Cholinergic receptor muscarinic 1 (CHRM1) small molecule antagonists, cell-based qHTS assay (AID 1963588); further: nearly all actives have a fitted effect of over 40% in size
CONDITION LABEL: CHRM1-CHO antagonist mode, calcium flux fluorescence; series mostly up to 61.5 µM
Results filed as inconclusive are left out. Calls of active or inactive are those of the source. The call rests on the fitted dose curve.
Use one of these outcomes when replying: class 1 for active, class 0 for inactive

q: Could you check what this test reported for CC1=CC(C)C(C=O)C(C)C1 (configuration not stated) ?
a: class 0

q: What call does the record list for O=C(NO)C1(NS(=O)(=O)c2ccc(Oc3ccc(F)cc3)cc2)CCOCC1 ?
a: class 0

q: How did this test come out for CCC(Cl)CCC(Cl)C(Cl)CC(Cl)C(Cl)C(Cl)CCl (configuration not stated) ?
a: class 0

q: I would be grateful if you could indicate the recorded call for COc1ccc2c(c1)c1c3n2CCN(C)C3=NCC1 .
a: class 0

q: Recorded test call requested for Cc1cc(O)c2c(c1)C(=O)c1cc(O)cc(O)c1C2=O
a: class 0

q: Lab log entry: c1ccc2c(c1)CCCC2C1=NCCN1 (configuration not stated) — outcome as called in the assay?
a: class 0

q: Status in this test for O=S(=O)(O)c1cc(I)c(O)c2ncccc12 ?
a: class 0

q: Called result for OC[C@H]1O[C@@H](n2cnc3c(=S)nc[nH]c32)[C@H](O)[C@@H]1O
a: class 0

q: # lookup: test call for CCN(CC)c1cccc(O)c1
a: class 0

q: For Cc1ccc(C)c([N+](=O)[O-])c1 , which call appears in the assay record?
a: class 0

q: # fetch the recorded call for OCCC1CCCCN1 (configuration not stated) here
a: class 0

q: Which outcome was entered for the compound CCn1ccc(NS(=O)(=O)c2ccc(N)cc2)nc1=O in this test?
a: class 0

q: Could you check what this test reported for Cc1cc2nc3c(=O)[nH]c(=O)nc-3n(C[C@H](O)[C@H](O)[C@H](O)CO)c2cc1C ?
a: class 0

q: Assay result, entry c1ccc2sc(SN3CCOCC3)nc2c1 — outcome?
a: class 0

q: Could you check what this test reported for CCC(=O)/C=C/c1ccc(OC)cc1 ?
a: class 0

q: // outcome(item) with item = Oc1ccc(-c2ccccc2)c(Cl)c1
a: class 0

q: Please indicate how the test categorized COC(=O)[C@]1(C)CCC[C@@]2(C)[C@H]1CC=C1C=C(C(C)C)CC[C@@H]12 .
a: class 0

q: Assay outcome for CCc1c(C)[nH]c2c1C(=O)C(CN1CCOCC1)CC2 (configuration not stated) : what was it?
a: class 0

q: Tell me the recorded outcome of this test for O=c1oc2cc(O)ccc2c2oc3cc(O)ccc3c12 .
a: class 0

q: Could you check what this test reported for O=S(=O)(c1ccc(OCc2ccccc2)cc1)c1ccccc1O ?
a: class 0

q: Name the outcome recorded for C=CCOc1ccccc1OCC(O)CNC(C)C (configuration not stated) in the assay.
a: class 0

q: For CS(=O)(=O)c1ccc([C@@H](O)[C@@H](CF)NC(=O)C(Cl)Cl)cc1 , which call appears in the assay record?
a: class 0

* * *

TEST TARGET: 5-hydroxytryptamine receptor 2A (Homo sapiens)
METHOD: 5-hydroxytryptamine receptor 2A (HTR2A) small molecule antagonists, cell-based qHTS assay (AID 1963586); further: nearly all actives have a fitted effect of over 45% in size
CONDITION LABEL: HTR2A-CHO cells, DOI-induced calcium flux, fluorescence; series mostly up to 61.5 µM
Protocol: National Center for Advancing Translational Sciences [NCATS] Division of Preclinical Innovation [DPI] U.S. Environmental Protection Agency [EPA] National Institutes of Environmental Health Sciences [NIEHS] National Toxicology Program [NTP] […] HTR2A-CHO cells were dispensed at 2000 cells/3uL/well in 1536-well black-clear bottom plates using a Multidrop Dispenser. […] The fluorescence intensity in the plates was measured using FDSS 7000EX kinetic plate reader for 3 min at 1 sec intervals.
Records with an inconclusive call do not appear. Calls of active or inactive are those of the source. Calls follow the shape of the full dose curve.
Select the matching outcome among active, inactive

Reference set (3 entries):
{"COMPOUND": "CCc1ccccc1", "CAT": "inactive"}
{"COMPOUND": "CCCC(CC)c1ccccc1 (centres undefined)", "CAT": "inactive"}
{"COMPOUND": "Cc1ccc2c(c1)CCCN2", "CAT": "inactive"}

q: Dear colleague, could you share the recorded outcome for O=C1C=CC(=O)N1c1cccc(N2C(=O)C=CC2=O)c1 when you have a moment?
a: inactive

q: Which result was noted for this compound in the test: C=CC(=C)CCCC(C)(C)OC(C)=O
a: inactive

q: What was the test verdict on Nc1ccc(N)c([N+](=O)[O-])c1 ?
a: inactive

q: Dear all, I need the recorded test outcome for CCC(CN)=C(c1ccccc1)c1ccccc1 , thank you.
a: inactive

q: Short answer needed: outcome of this test for Oc1c(Cl)cc(Cl)c2cccnc12 ?
a: inactive

q: // outcome(item) with item = CCCn1cc[n+](C)c1C
a: inactive

q: What did this assay record as the result for O=C(Cl)c1ccc([N+](=O)[O-])cc1 ?
a: inactive

q: # fetch the recorded call for O=C(CCCCCCC(=O)Nc1ccccc1)NO here
a: inactive

q: Per the records of this test, what outcome belongs to O=c1cc(-c2ccc(O)cc2)oc2cc(O)cc(O)c12 ?
a: inactive

q: What outcome does the record of this test show for O=C(O)COc1nn(Cc2ccccc2)c2ccccc12 ?
a: inactive

q: Test call, this compound: CC(=O)OC(C(=O)c1ccccc1)c1ccccc1 (centres undefined)
a: active
